Sourced from patent US12139520B2

assayed-target: T1, hAMY3R (human, UniProt P30988)
T1 sequence 1: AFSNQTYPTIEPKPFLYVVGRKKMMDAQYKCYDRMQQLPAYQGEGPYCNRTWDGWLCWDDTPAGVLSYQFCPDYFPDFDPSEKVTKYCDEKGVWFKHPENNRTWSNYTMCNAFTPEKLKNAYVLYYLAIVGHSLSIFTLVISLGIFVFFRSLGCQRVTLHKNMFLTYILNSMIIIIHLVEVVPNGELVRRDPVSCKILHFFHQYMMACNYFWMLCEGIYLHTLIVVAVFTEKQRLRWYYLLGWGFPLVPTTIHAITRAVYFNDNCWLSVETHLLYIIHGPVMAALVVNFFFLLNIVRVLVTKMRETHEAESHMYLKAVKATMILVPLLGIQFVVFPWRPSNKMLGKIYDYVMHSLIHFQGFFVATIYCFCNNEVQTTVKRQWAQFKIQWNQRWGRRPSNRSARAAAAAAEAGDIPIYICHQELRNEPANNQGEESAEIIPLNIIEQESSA
T1 sequence 2: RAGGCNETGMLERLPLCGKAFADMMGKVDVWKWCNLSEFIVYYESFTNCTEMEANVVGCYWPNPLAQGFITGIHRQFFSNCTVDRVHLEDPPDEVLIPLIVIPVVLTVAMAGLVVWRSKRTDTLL
experiment-notes: cell-based or functional assay
Numbered stars: 1 amine (or outer) side, 2 acyl side, 3 side chain; on linkers, the order of the positions; unused ones are H or OH. Bridge positions count the residues as written; N and C are the ends. Square brackets hold non-standard residues; d marks the D form. Ends that are not written are not given here. * marks the point of attachment. C20 diacid = O=C(O)CCCCCCCCCCCCCCCCCCC(=O)*; γGlu = O=C(O)[C@H](CCC(=O)[*:2])N[*:1]; Hyp = O=C(O)[C@@H]1C[C@@H](O)CN1; Trx = NC[C@H]1CC[C@H](C(=O)O)CC1; Cit = NC(=O)NCCC[C@H](N)C(=O)O; AEEA = NCCOCCOCC(=O)O
Reported hAMY3R EC50 (cAMP) by item:

# binder, hAMY3R EC50 (cAMP), nM
measured = [
    ("{C20 diacid-γGlu}-KCNTATCTVQRLAHQITQFTDKDKDNVAPPTNVGSNG[Hyp]-NH2 (disulfide 2-7 (inferred); ends not checked) [SEQ ID NO: 22]", 0.008),
    ("GCRFGTCTVQ[Cit]LAHQIYQFTDKDKDNVAPRTKVSPNG[Hyp]-NH2 (disulfide 2-7 (inferred); ends not checked) [SEQ ID NO: 288]", 0.03),
    ("{C20 diacid-γGlu}-KCNTATCTVQRLAHQIAQFTDKDKDNVAPPTNVGSNG[Hyp]-NH2 (disulfide 2-7 (inferred); not fully specified; ends not checked) [SEQ ID NO: 61]", 0.012),
    ("KCNTATCTVQRLAAQIYQFTDKDKDNVAPPTNVGSNG[Hyp]-NH2 (disulfide 2-7 (inferred); ends not checked) [SEQ ID NO: 7]", 0.006),
    ("GCRFGTCTVQRLAHQIYQFTDKDKDNVAPRTNISPQG[Hyp]-NH2 (disulfide 2-7 (inferred); ends not checked) [SEQ ID NO: 141]", 0.036),
    ("KCNTATCTVQRLAHAIYQFTDKDKDNVAPPTNVGSNG[Hyp]-NH2 (disulfide 2-7 (inferred); ends not checked) [SEQ ID NO: 13]", 0.007),
    ("KCNTATCTVQ[Cit]LAHQIYQFTDKDKDNVAPRTKVGSNG[Hyp]-NH2 (disulfide 2-7 (inferred); ends not checked) [SEQ ID NO: 248]", 0.027),
    ("{C20 diacid-γGlu}-KCNTSTCTVQRLAHQIYQFTDKDKDNVAPPTNVGSNG[Hyp]-NH2 (disulfide 2-7 (inferred); ends not checked) [SEQ ID NO: 50]", 0.011),
    ("GCRTGTCTVQRLAHQIHQFTDKFKDNVAPRSKISPQT[Hyp]-NH2 (disulfide 2-7 (inferred); ends not checked) [SEQ ID NO: 193]", 0.099),
    ("{C20 diacid-Trx-γGlu-AEEA-AEEA}-KCNTATCTVQRLAEQIYQFTDKDKDNVAPPTNVGSNG[Hyp]-NH2 (disulfide 2-7 (inferred); ends not checked) [SEQ ID NO: 126]", 0.027),
]
